# Test system: CAKI-1
# experimental details: NCI tumour cell line growth inhibition, 48 h
Activity calls are given as the source filed them. Rule as the data show it: active = GI50 up to about 1.1 µM and inactive = higher.
measure: GI50

Example entries and their recorded answers appear below.
• CC(C)=CCC[C@](C)(O[C@@H]1O[C@H](CO)[C@@H](O)[C@H](O)[C@H]1O)[C@H]1CC[C@]2(C)[C@@H]1[C@H](O)C[C@@H]1[C@@]3(C)CC[C@H](O)C(C)(C)[C@@H]3[C@@H](O[C@@H]3O[C@H](CO)[C@@H](O)[C@H](O)[C@H]3O)C[C@]12C [GINSENOSIDE RG1] = > 100 µM (inactive)
• COCP1(=S)OC(C)CCN1C(C)C (configuration not stated) = > 100 µM (inactive)
• CN(CCNC(=O)c1cn(C)c2c1ccc1ccccc12)CCNC(=O)c1cn(C)c2c1ccc1ccccc12 = 2.47 µM (inactive)
• Cc1cc(C)nc(NS(=O)(=O)c2ccc(Nc3c4ccccc4nc4c(C(=O)NCCO)cccc34)cc2)n1 = 23.3 µM (inactive)
• c1ccc(-c2sc(-c3ccccc3)c3c2C(c2ccccc2)c2c(-c4ccccc4)sc(-c4ccccc4)c2C3c2ccccc2)cc1 (configuration not stated) = > 100 µM (inactive)

Provide each entry's GI50 from the list below.
1. COC(=O)C(Cc1nc2ccc(Cl)cc2nc1O)/C(=N/NC(N)=O)C(=O)Nc1ccc(Cl)cc1 (configuration not stated)
2. CC1C(=O)C(C)C(c2cccs2)N(N=O)C1c1cccs1 (configuration not stated)
3. COC(=O)C1C2C=CC(C2)N1S(=O)(=O)c1ccccc1 (configuration not stated)
4. CN(C)[C@@H]1C(O)=C(C(N)=O)C(=O)[C@@]2(O)C(O)=C3C(=O)c4c(O)cccc4C[C@H]3C[C@@H]12
5. O=C(O)CCC(C(=O)O)N1C(=O)C2C3CCC(C3)C2C1=O (configuration not stated)
6. COc1ccc(C(O)/C(=N/N)c2nc3ccc(Cl)cc3nc2O)cc1 (configuration not stated)
7. Nc1nc2c(=O)c3ccccc3sc2s1

1. > 100 µM (inactive)
2. > 100 µM (inactive)
3. > 100 µM (inactive)
4. 1.98 µM (inactive)
5. > 100 µM (inactive)
6. > 100 µM (inactive)
7. 20.4 µM (inactive)

Required: GI50, one value per compound below.
1. Cc1ccc2[nH]c(Sc3c([N+](=O)[O-])ncn3C)nc2c1
2. COc1ccc(NC(=O)CC(=O)N2N=C(c3ccccc3)C(/N=N/c3ccc(S(=O)(=O)CCOS(=O)(=O)O)cc3)C2=O)cc1 (configuration not stated)
3. COc1ccc(C2=Nn3c(C)nnc3S/C2=C\c2ccc(-c3ccc([N+](=O)[O-])cc3)o2)cc1
4. O=C(O)CCN(CCCN(CCC(=O)O)CCC(=O)O)CCC(=O)O
5. COc1ccc(N[C@H]([C@@H](c2ccccc2)[S+]([O-])c2ccc(C)cc2)C(F)(F)F)cc1 (some centres not stated)

["11.9 µM (inactive)", "> 100 µM (inactive)", "14.5 µM (inactive)", "> 100 µM (inactive)", "46.7 µM (inactive)"]
